Source of measurements: PubChem BioAssay (NCI)

- method-summary: NCI Yeast Anticancer Drug Screen. Data for the bub3 strain (AID 167)
- protocol-conditions: S. cerevisiae bub3 mutant strain, at 50.0 µM, stronger effect = higher value
The panel holds about 79,000 compounds, 15% with a hit somewhere; the sample as a whole holds those more often. Active and inactive are the calls of the source. No stated cut-off is given here; in the data, active means growth inhibition above about 70%; inactive means the rest.
parameter: growth inhibition

INPUT: State its growth inhibition for this compound: COc1ccc2nc(C)cc(N=[N+]=[N-])c2c1
OUTPUT: 8.55% (inactive)

INPUT: Give the reported value of growth inhibition for this record: CCCC(=O)C1=C(O)C(CC2=C(O)C(C)(C)C(=O)C(C(=O)CCC)=C2O)=C(O)C(C)(C)C1=O
OUTPUT: -0.15% (inactive)

INPUT: Retrieve growth inhibition measured for CN(C)CCCSc1n[nH]c(=O)[nH]c1=O and print it.
OUTPUT: 1.6% (inactive)

====

- method-summary: NCI Yeast Anticancer Drug Screen. Data for the bub3 strain (AID 167)
- protocol-conditions: S. cerevisiae bub3 mutant strain, at 50.0 µM, stronger effect = higher value
The panel holds about 79,000 compounds, 15% with a hit somewhere; the sample as a whole holds those more often.
Answer No if growth inhibition is under -10%, and Yes if it is -10% or more.

# example entries with known answers
| compound | group-label |
| --- | --- |
| O=C(CCl)N1CCC(CC2(c3cc4ccccc4[nH]3)OCCO2)CC1 | Yes |
| O=C(O)c1cc(C(=O)O)nc(C(=O)O)c1 | Yes |

INPUT: Evaluate CC1=CCC(C(C)(C)NC(=O)c2ccccc2)C/C1=N/O (stereo unspecified) : growth inhibition at minimum -10%?
OUTPUT: No

INPUT: # bool: growth inhibition of O=CC(O)C(O)C(O)C(O)C(=O)O.O=CC(O)C(O)C(O)C(O)C(=O)O.[NH-]C1CCCCC1[NH-].[Pt+2] (stereo unspecified) >= -10%
OUTPUT: Yes

INPUT: Has O=S(=O)(O)c1cc(O)ccc1O.O=S(=O)(O)c1cc(O)ccc1O.[NH-]C1CCCCC1[NH-].[Pt+2] a recorded growth inhibition greater than or equal to -10%?
OUTPUT: Yes

INPUT: Form field: growth inhibition at least -10%? Entry: CNc1nnnn1C1OC(CO)C(O)C1O (stereo unspecified)
OUTPUT: No

====

# growth inhibition annotations
- method-summary: NCI Yeast Anticancer Drug Screen. Data for the mlh1 rad18 strain (AID 175)
- protocol-conditions: S. cerevisiae mlh1 rad18 strain growth inhibition; at 50.0 µM; stronger effect = higher value
Compounds without any hit were thinned out: in the full panel of roughly 79,000, 15% have a hit.
Record the value in %, omitting the unit from your answer.

| molecule | readout-value |
| --- | --- |
| O=C(C[n+]1cccc2ccccc21)c1ccc(F)cc1 | -3 |
| Cc1cc(C)c(/C=N/NC(=O)NN)c(C)c1 | -4.6 |
| O=C(O)Cc1cccc2nnnn12 | 23.9 |
| Cc1ccccc1NC(=O)C(=O)Cc1nc2ccccc2s1 | 20.4 |
| COCC1OC(OC2(COC)OC(COC)C(OC)C2OC)C(OC)C(OC)C1OC (centres undefined) | 5.6 |
| CN(C)CCCCCCNCCC#N | -1.6 |

INPUT: // Input: CC1(C)OC2OC(COC(=O)c3ccccc3)C(N3C(=O)c4ccccc4C3=O)C2O1 (centres undefined) . Output its growth inhibition only.
OUTPUT: 49

INPUT: Provide measured growth inhibition value, entry: CNc1cccc2c1C(=O)c1ccccc1C2=O
OUTPUT: 17.9

INPUT: Note down growth inhibition recorded for O=C(O)CC(/C=C\C(=O)C(=O)O)=C\O
OUTPUT: -10.2

INPUT: Give reported growth inhibition value for CC(=O)Nc1ccc2nc(C)cc(Cl)c2c1
OUTPUT: 4.35

INPUT: Give the value of growth inhibition reported for the following: CC(=O)OC1/C=C(\C)C(OC(C)=O)C/C=C(/C)CCC2C(/C=C/C1=O)C2(C)C (centres undefined)
OUTPUT: 74

INPUT: Tell us which growth inhibition value is on record for O=C1c2cc(Cl)ccc2-c2c(Cl)cccc21
OUTPUT: -14.9

INPUT: Provide only the value of recorded growth inhibition for C/C(=N\OC(=O)c1c(-c2c(Cl)cccc2Cl)noc1C)c1ccccc1O
OUTPUT: -4.75

INPUT: Provide measured growth inhibition value, entry: Nc1cc(C(F)(F)F)ccc1[N+](=O)[O-]
OUTPUT: 22.4

====

- method-summary: NCI Yeast Anticancer Drug Screen. Data for the cln2 rad14 strain (AID 165);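 further: 0% = growth equal to vehicle treated cultures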
- protocol-conditions: S. cerevisiae cln2 rad14 strain, at 50.0 µM, stronger effect = higher value
- Method: Growth inhibition of yeast strains with defined genetic alterations is measured as a screen for potential anti-cancer activity. Selected strains with alterations in DNA damage repair or cell cycle control were exposed to compounds and growth inhibition was measured relative to vehicle treated controls. The strain used in this assay is cln2 rad14
This is part of a sample that, as a whole, favours compounds with a hit. Of some 79,000 tested, about 15% had one in any assay.
parameter: growth inhibition (%)
Value expressed in %; do not type the unit.

Examples from the recorded data:
| compound | growth inhibition [%] |
| --- | --- |
| CCCCN(C(=O)CCC)c1ccccc1 | -40 |
| O=C(O)c1ccccc1C(=O)OCc1ccccc1 | -11.2 |
| COC1OC(COC(=O)c2ccccc2)C(SC(=O)c2ccccc2)C1OC(=O)c1ccccc1 (configuration not stated) | -2 |
| CC(C)C1CCC2(CC1)CCN(CCCN(C)C)CC2 | -23.6 |
| CCCCNC(=O)Nc1nc2ccccc2s1 | 38 |
| CCC(=O)Oc1c2ccsc2c(OC(=O)CC)c2ccsc12 | -3.2 |
| CCc1cnccc1C | 6.25 |
| O=C1NC(Cc2ccc(O)cc2)C(=O)N1c1ccccc1O (configuration not stated) | 2.5 |

Proceed to the following item.
INPUT: Give me measured growth inhibition, please, for this compound: COc1cccc2c1N=c1c(Cl)c3c(c(Cl)c1O2)=Nc1c(OC)cccc1O3
OUTPUT: -13.9

====

# growth inhibition listing for each entry below
- method-summary: NCI Yeast Anticancer Drug Screen. Data for the mlh1 rad18 strain (AID 175)
- protocol-conditions: S. cerevisiae mlh1 rad18 strain growth inhibition; at 50.0 µM; stronger effect = higher value
About 79,000 compounds went through this panel and 15% of them were active in at least one assay; those are over-represented in the sample as a whole.
Report the value in % with no unit label.

| molecule | growth inhibition (%) |
| --- | --- |
| COc1ccc(C2CC(C)(O)Oc3cc4c(cc32)OCO4)cc1 (stereo not given) | 27.1 |
| COc1ccc(NC(=O)CC(=O)N2N=C(N(c3ccccc3)c3ccccc3)CC2c2ccccc2)cc1 (stereo not given) | -29.8 |
| CN(C=O)c1cccc(C(=O)O)c1 | 7.45 |
| C=CCCCCCCCCCOC=O | 3.2 |
| O=C(/C=C/c1ccco1)c1ccc(O)c(C(=O)O)c1 | -2.9 |
| N#C/C(=C1\N=C(c2ccccc2O)Oc2ccccc21)c1ccc([N+](=O)[O-])cc1 | -13.6 |
| O=C(NC(=S)Nc1ccc(S(=O)(=O)c2ccc(NC(=S)NC(=O)c3ccccc3)cc2)cc1)c1ccccc1 | -12.6 |
| CCN(CC)CC(O)C=O (stereo not given) | 6.7 |

INPUT: Give the reported value of growth inhibition for this record: COc1ccc(-c2cc(=O)c3cc(C)c(C)c(C#N)c3o2)cc1
OUTPUT: -37.5

INPUT: Supply recorded growth inhibition for O=C(O)CCCC(=O)c1ccccc1 here.
OUTPUT: 20.1

INPUT: Dear colleague, please send me the reported growth inhibition for O=C(O)c1ccccc1C(=O)OC1CC2CCC1C2 (stereo not given) when you can.
OUTPUT: 1.6

INPUT: Return value of growth inhibition for input OC1CC2C3CCC(C3)C2C1O (stereo not given) , no commentary.
OUTPUT: -2.95

INPUT: Note growth inhibition for the molecule shown: Cc1cc2c(c(C(C)(C)C)c1)OC(=O)/C2=C1/C(=O)Oc2c1cc(C)cc2C(C)(C)C
OUTPUT: -12.8

INPUT: Recall and state the measured growth inhibition for Nc1ccc(C2NC(=O)Cc3c2ccc2ccccc32)cc1 (stereo not given) .
OUTPUT: 13.6

INPUT: // Input: CC(C)(C)C(=O)N1C(C(=O)O)Cc2ccccc2[C@@H]1Cc1ccccc1 (stereo not given in full) . Output its growth inhibition only.
OUTPUT: -29.5

INPUT: Entry C=C(CN(CC)CC)C1(c2ccccc2)CC2(CCCC2)C(=O)O1 (stereo not given) needs its growth inhibition filled in; supply it.
OUTPUT: 5.65

INPUT: Give growth inhibition for N#CCCCCCCCCC(=O)O
OUTPUT: -11.5

INPUT: Note growth inhibition for the molecule shown: CCCCCCCCCCCCSC(=O)CCC(=O)O
OUTPUT: 10.1

====

The entries below are paired with their reported growth inhibition.
- method-summary: NCI Yeast Anticancer Drug Screen. Data for the mec2-1 strain (AID 157)
- protocol-conditions: S. cerevisiae mec2-1 strain, at 50.0 µM, stronger effect = higher value
- Protocol: Growth inhibition of yeast strains with defined genetic alterations is measured as a screen for potential anti-cancer activity. Selected strains with alterations in DNA damage repair or cell cycle control were exposed to compounds and growth inhibition was measured relative to vehicle treated controls. The strain used in this assay is mec2-1
About 79,000 compounds went through this panel and 15% of them were active in at least one assay; those are over-represented in the sample as a whole.
Entry rule: numbers only, all in %.

| compound | growth inhibition / % |
| --- | --- |
| O=C(O)c1ccncc1C(=O)c1csc2ccccc12 | 14.2 |
| CC1CC(C#N)=C(NC#N)NC1=O (stereo not given) | 12.4 |
| O=[N+]([O-])c1cc(Cl)ccc1Nc1ccccc1 | 32.5 |
| OC1(c2ccc(-c3ccc(-c4ccc(C5(O)C(c6ccccc6)=C(c6ccccc6)C(c6ccccc6)=C5c5ccccc5)cc4)cc3)cc2)C(c2ccccc2)=C(c2ccccc2)C(c2ccccc2)=C1c1ccccc1 | 4.4 |

INPUT: Complete the entry with growth inhibition for O=C(O)CCCC(=O)c1ccccc1
OUTPUT: -8.65
